Taken from ChEMBL document CHEMBL1148725.

assay: Antiproliferative activity against U373MG cells after 72 hrs by MTT assay; type: functional, cell-based, Homo sapiens, U-373MG ATCC; conditions: Homo sapiens, U373 MG, 72 h
Simple rule here: IC50 less than 4 µM is True, otherwise False.

{"columns": ["SMILES ENTRY", "CAT"],
 "data": [
  ["CN(C)CCN1C(=O)c2cccc3cc(NC(=O)C(F)(F)F)cc(c23)C1=O", "False"],
  ["CN(C)CCN1C(=O)c2cccc3cc(/N=C\\c4ccc5c(c4)OCO5)cc(c23)C1=O", "False"],
  ["CN(C)CCN1C(=O)c2cccc3cc(NC(=O)NC(=O)c4ccccc4)cc(c23)C1=O", "True"],
  ["CN(C)CCN1C(=O)c2cccc3cc(NC(=O)Nc4cc5c6c(cccc6c4)C(=O)N(CCN(C)C)C5=O)cc(c23)C1=O", "True"],
  ["CN(C)CCN1C(=O)c2cccc3cc(NC(=S)NCc4ccc5c(c4)OCO5)cc(c23)C1=O", "False"]
]}

Please indicate whether the reported IC50 of CN(C)CCN1C(=O)c2cccc3cc(NC(=S)Nc4ccc(Cl)cc4)cc(c23)C1=O is strictly below 4 µM.
False

Please indicate whether the reported IC50 of CN(C)CCN1C(=O)c2cccc3cc(N)cc(c23)C1=O.Cl is strictly below 4 µM.
False

Please indicate whether the reported IC50 of CN(C)CCN1C(=O)c2cccc3cc(NC(=O)CCCCl)cc(c23)C1=O is strictly below 4 µM.
False

----------
assay: Antiproliferative activity against U373MG cells after 72 hrs by MTT assay; format: functional, cell-based, Homo sapiens, U-373MG ATCC; details: Homo sapiens, U373 MG, 72 h
// log10(IC50) lookup, one value per entry
Units before log transform: µM; reported quantity: IC50; transform: log10.

Study these solved cases before continuing.
{"columns": ["COMPOUND", "log10(IC50)"],
 "data": [
  ["CN(C)CCN1C(=O)c2cccc3cc(NC(=O)Nc4ccc(C#N)cc4)cc(c23)C1=O", -0.05],
  ["COc1ccc(CC(=O)Nc2cc3c4c(cccc4c2)C(=O)N(CCN(C)C)C3=O)cc1", 0.43],
  ["CN(C)CCN1C(=O)c2cccc3cc(NC(=O)c4ccccc4)cc(c23)C1=O", 0.78],
  ["CN(C)CCN1C(=O)c2cccc3cc(NC=O)cc(c23)C1=O", 0.64],
  ["CN(C)CCN1C(=O)c2cccc3cc(NC(=O)Nc4ccc(OC(F)(F)F)cc4)cc(c23)C1=O", 0.49]
]}

Please supply the value of reported log10(IC50) for the item CN(C)CCN1C(=O)c2cccc3cc(NCc4ccc5c(c4)OCCO5)cc(c23)C1=O
0.85

Please supply the value of reported log10(IC50) for the item CN(C)CCN1C(=O)c2cccc3cc(/N=C\c4cc5c(cc4[N+](=O)[O-])OCO5)cc(c23)C1=O
0.70

Please supply the value of reported log10(IC50) for the item CN(C)CCN1C(=O)c2cccc3cc(NC(=O)Nc4ccc5c(c4)OCO5)cc(c23)C1=O
0.15

Please supply the value of reported log10(IC50) for the item COc1cc(/C=N\c2cc3c4c(cccc4c2)C(=O)N(CCN(C)C)C3=O)cc(OC)c1OC
0.81

Please supply the value of reported log10(IC50) for the item CN(C)CCN1C(=O)c2cccc3cc(NC(=O)C(Cl)(Cl)Cl)cc(c23)C1=O
0.95

Please supply the value of reported log10(IC50) for the item CN(C)CCN1C(=O)c2cccc3cc(NC(=O)NC(=O)C(Cl)(Cl)Cl)cc(c23)C1=O
-0.05
